Reference source: PubChem BioAssay

Listed below: inhibition values for each entry.
test: growth suppression of yeast trafficking mutant, preliminary HTS, modulators of trafficking downstream of Golgi apparatus project, 1536-format plate, OD 615 nm (AID 637); conditions: yeast transport mutant growth, absorbance 615 nm, 18 h; stronger effect = higher value
Active and inactive are the calls of the source. Rule as the data show it: active = inhibition above about 30%; inactive = the rest.

Worked set:
compound | property-measured | result
c1cn(C23CC4CC(CC(C4)C2)C3)cn1 | inhibition | 1.94% (inactive)
COC(=O)c1ccc(NC(=O)Cn2nnc3ccccc32)cc1 | inhibition | 0% (inactive)
O=C1NC2=C(C(=O)CCC2)C(c2ccc3ncccc3c2)N1 (stereo not given) | inhibition | 1.9% (inactive)

Sample "COC(=O)Cn1c2c(c3cc(C)ccc31)CCCC2" ; inhibition observed: 4.75% (inactive)

Sample COc1ccc(-c2cc(C(F)(F)F)n3ncc(C(=O)NCC4CCCO4)c3n2)cc1 (stereo not given) ; inhibition observed: -3.67% (inactive)

Sample "O=C(O)c1cccc(NS(=O)(=O)c2ccc3nnn(O)c3c2)c1" ; inhibition observed: 5.71% (inactive)

Sample COc1ccc(S(=O)(=O)N2CCCC(C(=O)N3CCCCCC3)C2)cc1 (stereo not given) ; inhibition observed: 2% (inactive)

Sample CC1CCCN(C(=O)c2cc(F)c(F)cc2Cl)C1 (stereo not given) ; inhibition observed: -3.77% (inactive)

Sample O=C(NCC1CCCO1)C1CCN(c2ccc(S(=O)(=O)N3CCCC3)cc2)CC1 (stereo not given) ; inhibition observed: -1.5% (inactive)

Sample "CCNS(=O)(=O)c1c(C)cc(N2CCCC2=O)cc1C" ; inhibition observed: -1.31% (inactive)

---

experiment: reversal of MRP1-mediated doxorubicin resistance, pilot screen, H69AR cells, doxorubicin co-treatment (AID 601); details: H69AR cells + 2 uM doxorubicin, CellTiter-Glo, 72 h; at 10 µM; stronger effect = higher value
property-measured: differential viability (reversal) (%)
Quick reminder: number only, in %, skip the unit.

Worked set:
molecule | output-unit | result-number
CC1Cc2nc(SCC(=O)Nc3ccc(F)cc3F)n(C)c(=O)c2S1 (stereo not given) | % | -8.34
COc1ccc(-c2cc3n(n2)CCc2nc4ccccc4n2-3)cc1 | % | 6.67
Cn1c(SCc2nnc3n2CCCCC3)nc2ccccc21 | % | 4.2
O=C(C1CCCO1)N1CCN(Cc2nc3ccccc3c(=O)[nH]2)CC1 (stereo not given) | % | -10
CCc1nccn1S(=O)(=O)c1ccc(C)c(C)c1 | % | 12.7
CCOc1ccccc1N(CC(=O)NC1CCCC1)C(=O)CCCC(=O)Nc1ccccn1 | % | 15.3

Sample "CSc1nc2c(ccc3ccccc32)o1" ; differential viability (reversal) observed: 2.83

Sample COC(=O)c1cc(NC(=O)C2COc3ccccc3O2)cc(C(=O)OC)c1 (stereo not given) ; differential viability (reversal) observed: 10.2

Sample CCC(C(=O)O)n1c(C(F)(F)F)nc2ccccc21 (stereo not given) ; differential viability (reversal) observed: 3.27

Sample "O=C(c1ccco1)N(Cc1cc2ccccc2[nH]c1=O)C1CCCCC1" ; differential viability (reversal) observed: 12.9

---

experiment: reducers of endogenous Her2 protein level, primary screen, SKBR3 breast tumor cells, AlphaScreen, ATP viability (AID 461); settings: 18-24 h, measured here: SKBR3 viability, ATP luminescence, at 10 µM;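 also: percent of carrier control wells set as 100% viability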
property-measured: viability (%)
Quick reminder: number only, in %, skip the unit.

compound | property-measured | output-unit | result-number
CC(C)OC(=O)CN1C(=O)C(C)(C)Oc2ccc(C(=O)NC3CC3)cc21 | viability | % | 96

Sample "Cc1ccc(NC(=O)CCN2CCc3ccccc3C2)cc1" ; viability observed: 91.5

Sample "Cc1ccc(-n2c(Cn3cnc4ccccc43)nnc2SCC(=O)O)cc1" ; viability observed: 102

Sample "Nc1nc(N)nc(-c2ccccc2)n1" ; viability observed: 97.5

Sample "CCOC(=O)Nc1ccc2c(c1)N(C(=O)CN(CC)CC)c1ccccc1C=C2" ; viability observed: 87.5

---

assay: SK-BR-3 cell growth inhibitors, pilot screen, 24 h, human (AID 572); conditions: SK-BR-3 viability, CellTiter-Glo luminescence, at 10 µM, stronger effect = lower value;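 also: compound exposure lasted between 18 and 24 h rather than exactly 24 h; 100% = carrier-treated control wells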
Listed below: viability values for each entry.
Quick reminder: number only, in %, skip the unit.

compound-structure-string | output-unit | viability
CCCc1nn(CCc2ccccn2)c(N)c1CC | % | 114
Cc1cccn2c(=O)c3cc(C(=O)N4CCCc5ccccc54)n(C)c3nc12 | % | 86.5
CCCCCCNC(=O)Cc1c(O)c2ccccc2[nH]c1=O | % | 105
CS(=O)(=O)c1ccc2nc(NC(=O)c3cccs3)sc2c1 | % | 99

Query compound follows.
Sample "COc1ccc(-c2nnc(-c3cccs3)o2)cc1OC" ; viability observed: 75

---

Listed below: inhibition values for each entry.
test: growth suppression of yeast trafficking mutant, preliminary HTS, modulators of trafficking downstream of Golgi apparatus project, 1536-format plate, OD 615 nm (AID 637); details: yeast transport mutant growth, absorbance 615 nm, 18 h; stronger effect = higher value
Quick reminder: number only, in %, skip the unit.

molecule | inhibition / %
CCS(=O)(=O)N1CCCC(C(=O)NCc2cccc(OC)c2)C1 (stereo not drawn) | 5.41
COc1ccc(NC(=O)CN(c2ccc(C)cc2)S(C)(=O)=O)c(OC)c1 | -3.5

Sample "CN1CCN(/C=N/c2sc3c(c2C#N)CCCCC3)CC1" ; inhibition observed: -9.52

---

Listed below: inhibition values for each entry.
assay: growth suppression of yeast trafficking mutant, preliminary HTS, modulators of trafficking downstream of Golgi apparatus project, 1536-format plate, OD 615 nm (AID 637); conditions: yeast transport mutant growth, absorbance 615 nm, 18 h; stronger effect = higher value
Quick reminder: number only, in %, skip the unit.

Worked set:
compound | output-unit | inhibition
CCOC(=O)CN(C(=O)CSc1nnc(-c2ccncc2)n1CCCN(C)C)c1ccccc1 | % | 1.9
CC(C)CC(=O)CN1C(=O)C2(OCCO2)c2ccccc21 | % | 1.83

Sample CC(C)(Oc1ccc(Cl)cc1)C(=O)NC1CCSC1=O (configuration not stated) ; inhibition observed: -9.52

Sample CCOC(=O)C1CCCN(C(=O)c2cc3c(C)nc4ccccc4c3o2)C1 (configuration not stated) ; inhibition observed: 16.7

Sample "Fc1ccccc1-c1nc(-c2ccccc2)no1" ; inhibition observed: -3.87

Sample "O=C1CC(=O)N(Cc2cccs2)C(=O)N1" ; inhibition observed: -3.82

Sample "COc1ccc(CCNc2nc(N3CCOCC3)nc(N3CCOCC3)n2)cc1OC" ; inhibition observed: -4.84

Sample "CC(C)(C)NC(=O)NC(=O)COc1ccccc1C#N" ; inhibition observed: -2.38

Sample "CCc1nnc2sc(-c3cc(-c4ccccc4)nc4ccccc34)nn12" ; inhibition observed: 1

Sample "CCOCCn1cnc2sc(C(=O)NCC(=O)OCC)c(C)c2c1=O" ; inhibition observed: 2.9

Sample COc1ccc(NC(=O)C(C)NS(=O)(=O)c2ccc(NC(C)=O)cc2)cc1Cl (configuration not stated) ; inhibition observed: -1.75

Sample "COc1ccccc1N1CCN(Cc2nnnn2CCc2ccccc2)CC1" ; inhibition observed: 25.6

---

assay: reversal of MRP1-mediated doxorubicin resistance, pilot screen, H69AR cells, doxorubicin co-treatment (AID 601); settings: H69AR cells + 2 uM doxorubicin, CellTiter-Glo, 72 h; measured here: viability with 2 uM doxorubicin; at 10 µM; stronger effect = lower value
Listed below: viability values for each entry.
Quick reminder: number only, in %, skip the unit.

Sample "COCCn1c(SCC(=O)N(C(C)C)C(C)C)nnc1-c1cc2ccccc2cc1O" ; viability observed: 88

Sample O=C1Nc2ccccc2OC1CC(=O)N1CCCC1 (stereo not drawn) ; viability observed: 90.5

Sample COc1ccc(N2CCN(C(c3cccs3)c3nnnn3C3CCCC3)CC2)cc1 (stereo not drawn) ; viability observed: 87.5

---

assay: growth suppression of yeast trafficking mutant, preliminary HTS, modulators of trafficking downstream of Golgi apparatus project, 1536-format plate, OD 615 nm (AID 637); conditions: yeast transport mutant growth, absorbance 615 nm, 18 h; stronger effect = higher value
Listed below: inhibition values for each entry.
Quick reminder: number only, in %, skip the unit.

Sample c1ccc2c(c1)CC(N1CCCCC1)c1ccccc1N2 (stereo unspecified) ; inhibition observed: -3.93

Sample COCC(=O)Nc1sc2c(c1C(=O)OC)C(C(=O)OC)CC2 (stereo unspecified) ; inhibition observed: 11.4

Sample "CCOc1ccc(-c2nc(C#N)c(N3CCCCCC3)o2)cc1" ; inhibition observed: -0.17

Sample "O=C(CSc1ncnc2c1cnn2-c1ccccc1)Nc1ccccc1" ; inhibition observed: 2.22

Sample "Nn1c(SCc2csc(-c3ccccc3)n2)nnc1-c1cccs1" ; inhibition observed: 5.25

Sample Cc1ccc(C)c(/C(O)=C2\C(=O)C(=O)N(CCCN3CCOCC3)C2c2cccnc2)c1 (stereo unspecified) ; inhibition observed: -2.33

---

assay: reversal of MRP1-mediated doxorubicin resistance, pilot screen, H69AR cells, doxorubicin co-treatment (AID 601); conditions: H69AR cells, CellTiter-Glo, 72 h; compound alone cytotoxicity; at 10 µM
property-measured: viability (%)
Quick reminder: number only, in %, skip the unit.

molecule | output-unit | viability
Cn1c(=O)c2c([nH]c(=O)n2C)n(C)c1=O | % | 90.2

Sample "CCCCN(C)Cc1c(C)[nH]c2c(Cl)cccc2c1=O" ; viability observed: 90.6

Sample CCOC(=O)C1=C(C)N=C2SC(C)C(=O)N2C1c1cccc(F)c1 (stereo not given) ; viability observed: 87.5

Sample "O=S(=O)(Nc1ccc(Cc2ccncc2)cc1)N1CCCC1" ; viability observed: 92.4

Sample "Cn1c(SCC(=O)N2CCOCC2)nnc1-c1cccc(NC(=O)c2ccccc2F)c1" ; viability observed: 91.5
